test: Human HepG2 cell viability assay in 384 well format; assay type: toxicity, cell-based; design: dose 125 nL, time 70.5 hour; concentration not given beside the values; details: HepG2 cells, read-out: Inhibition
observed_property: cytotoxicity at 70.5 h (%)
Use % as the unit, but write only the number.

Query: What measured cytotoxicity at 70.5 h goes with OCCOc1cc(F)ccc1NCc1ccc(F)c(F)c1 ?
Reply: -2.79

* * *

assay: Human HepG2 cell viability assay in 384 well format; type: toxicity, cell-based; parameters: dose 125 nL, time 70.5 hour; concentration not given beside the values; conditions: HepG2 cells, read-out: Inhibition
Quick reference: cytotoxicity at 70.5 h of the listed items.
Use % as the unit, but write only the number.

Below: 3 compounds and their reported cytotoxicity at 70.5 h.
CC(C)C(C)N(C)Cc1nnc(-c2ccco2)o1 (configuration not stated)	17.4
CCOc1ccnc(N2CCN(C(=O)c3ccc(OC)cc3)CC2)n1	-12.5
O=C(CCc1ccccc1F)NS(=O)(=O)c1ccc2c(c1)OCCO2	21.2

Query: What measured cytotoxicity at 70.5 h goes with Cn1nc(C2CCCNC2)c2c(C(=O)NC3CC3)cc(C3CC3)nc21 (configuration not stated) ?
Reply: 13.4

Query: What measured cytotoxicity at 70.5 h goes with CNC(=O)C1Cn2ccnc2C2(CCN(Cc3cccs3)CC2)O1 (configuration not stated) ?
Reply: 11.6

Query: What measured cytotoxicity at 70.5 h goes with c1ccc2oc(NC3CCCN(Cc4noc(C5CC5)n4)C3)nc2c1 (configuration not stated) ?
Reply: -10.4

Query: What measured cytotoxicity at 70.5 h goes with CCc1ncc(C(=O)NCCNc2ncnc3sccc23)s1 ?
Reply: 18.2

Query: What measured cytotoxicity at 70.5 h goes with Cc1cc(N2CCC(Cc3ccccc3)CC2)ncn1 ?
Reply: -11.5

Query: What measured cytotoxicity at 70.5 h goes with Cn1ccc2ccc(C(=O)NC3CCOC(C)(C)C3)cc21 (configuration not stated) ?
Reply: 8.55

Query: What measured cytotoxicity at 70.5 h goes with Cn1ccnc1C(O)c1ccccc1N1CCN(Cc2cccs2)CC1 (configuration not stated) ?
Reply: -0.023

Query: What measured cytotoxicity at 70.5 h goes with O=C(NCCCc1nc(=O)[nH][nH]1)Nc1cccc(F)c1 ?
Reply: -1.96

Query: What measured cytotoxicity at 70.5 h goes with Clc1ccc(CN2CCOC[C@H](Oc3cccnc3)C2)cc1 ?
Reply: -2.34
